B1: TRIM15 (parent)
chain: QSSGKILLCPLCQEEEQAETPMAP

Variants of: B1
protocol summary: protein stability index of a GFP-peptide fusion (GPS, HEK-293T) (PSI 1-6); higher = more stable;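 further: lentivirally expressed fusions sorted by FACS into six bins by GFP to DsRed ratio, PSI derived from sequencing read proportions per bin multiplied by bin number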
condition set: c terminus: a fixed tail appended
experimental endpoint: protein stability index

**Query** Value lookup for protein stability index; key = QSSGKIQLCPLCQEEEQAETPMAP [L7Q]
**Result** 3.94
